Data provenance is patent US20260242478A1.

Target: T1, Anti-PSMA Fab (SEQ ID NOs: 19, 20) (biotinylated (site not stated))
T1 construct: also called 006 PSMA Fab
Experiment: phage ELISA; biotinylated PSMA Fab on neutravidin plate, wells pre-incubated with PSMA antigen as competitor, anti-M13 HRP detection
Rule for this label: fulfilled means Phage binding ELISA, Anti-PSMA Fab signal in the presence of PSMA is less than 0.07; not fulfilled means Phage binding ELISA, Anti-PSMA Fab signal in the presence of PSMA is at least 0.07.

LVNWCIPMWMCEGF (Clonal phage of the Peptide-180 library, tested as crude supernatant; not shown: fused to the pIII filament protein of the bacteriophage) [Phage-1922]: not fulfilled
ELHLCIPRGMCKFR (Clonal phage of the Peptide-180 library, tested as crude supernatant; not shown: fused to the pIII filament protein of the bacteriophage) [Phage-1928]: fulfilled
VEKLCKPIWMCNWQ (Clonal phage of the Peptide-180 library, tested as crude supernatant; not shown: fused to the pIII filament protein of the bacteriophage) [Phage-1935]: not fulfilled
FAKWCTPEWMCVGF (Clonal phage of the Peptide-180 library, tested as crude supernatant; not shown: fused to the pIII filament protein of the bacteriophage) [Phage-1926]: not fulfilled

Proceed to the following item.
Please determine if VQNWCIPAWMCQGM (Clonal phage of the Peptide-180 library, tested as crude supernatant; not shown: fused to the pIII filament protein of the bacteriophage) [Phage-1930] is below 0.07 in terms of Phage binding ELISA, Anti-PSMA Fab signal in the presence of PSMA.
fulfilled
